Below, each entry is listed alongside its reported viability at 72 h, 0.01 µM.
# Assay Info: SRB cytotoxicity (cell viability) assay
# Assay type: cell-based, Human
# Details: human, Human Skin Fibroblast (HSF) cells, 0.01 μM, 72 h, n = 3
Express it in %; write the number only.

The cases that follow already have their viability at 72 h, 0.01 µM on record.
>>> endpoint_result("COc1ccc2c(OC3CC4C(=O)NC5CC5C=CCCCCN(C)C(=O)C4C3)cc(-c3nc(C(C)C)cs3)nc2c1C (stereo not drawn)")
98.5
>>> endpoint_result("CN1CCCCC=CC2CC2(C(=O)NS(=O)(=O)C2CC2)NC(=O)C2CC(O)CC2C1=O (stereo not drawn)")
97.7
>>> endpoint_result("COc1ccc2c(OC3C[C@H]4C(=O)OC(=O)[C@@H]4C3)cc(-c3nc(C(C)C)cs3)nc2c1C")
98.7

response.value for COc1cccc2c1C(=O)c1c(O)c3c(c(O)c1C2=O)C[C@@](O)(C(=O)CO)C[C@@H]3O[C@H]1C[C@H](N)[C@H](O)[C@H](C)O1 [Doxorubicin, reference compound] (field: viability at 72 h, 0.01 µM) = 99.5

response.value for COc1ccc2ccc(-c3scc(C(C)C)[n+]3[O-])[n+]([O-])c2c1CO (field: viability at 72 h, 0.01 µM) = 96.1

response.value for COc1ccc2ccc(-c3scc(C(C)C)[n+]3[O-])[n+]([O-])c2c1C (field: viability at 72 h, 0.01 µM) = 96.3
